The following compounds are listed with their measured Tumour/Blood, mean values.
Tested on: Lewis lung carcinoma (LLC) tumour
TEST SUMMARY: Biodistribution in LLC tumour model in vivo
Parameters: species or system C57BL/6 mice
EXPERIMENTAL CONDITIONS: 120 min post injection
Procedure: 1×10^6 Lewis lung carcinoma (LLC) cells are injected subcutaneously into right inner thigh of C57BL/6 mice. Tumours were allowed to grow for 15 days prior to biodistribution being carried out. Biodistribution studies were performed in the LLC tumour model. Biodistribution was performed in the LLC tumour model of Example 23 with Compounds 46B and 48B.

COMPOUND	TESTED ON	Tumour/Blood, mean
O=C(CCN(C1(C(=O)NO)CCCC1)S(=O)(=O)c1ccc(Oc2ccc(F)cc2)cc1)NCCc1ccc(O)c([123I])c1 [Compound 24A]	Lewis lung carcinoma (LLC) tumour	0.66

Next item in the queue.
Dear colleague, I am looking for the recorded Tumour/Blood, mean of the following compound: NCCCC[C@H](NC(=O)CCN(C1(C(=O)NO)CCCC1)S(=O)(=O)c1ccc(Oc2ccc(F)cc2)cc1)C(=O)N[C@@H](CCCCN)C(=O)N[C@@H](CCCCN)C(=O)N[C@@H](CCCCN)C(=O)N[C@@H](CCCCN)C(=O)NCCOCCOCCOCCNC(=O)COCC(=O)N[C@@H](Cc1ccc(O)c([123I])c1)C(N)=O [Compound 42A]
0.56

---

Test system: Lewis lung carcinoma (LLC) tumour
TEST SUMMARY: Biodistribution in LLC tumour model in vivo
Set-up: species or system C57BL/6 mice
EXPERIMENTAL CONDITIONS: 120 min post injection
ASSAY READOUT: Tumour/Blood, mean
// keep it numeric: no unit symbol after the value

Below are worked cases with known answers.
COMPOUND	ASSAY READOUT	MEASURED NUMBER
NC(=O)[C@H](Cc1ccc(O)c([123I])c1)NC(=O)[C@H](CCC(=O)O)NC(=O)[C@H](CCC(=O)O)NC(=O)[C@H](CCC(=O)O)NC(=O)[C@H](CCC(=O)O)NC(=O)[C@H](CCC(=O)O)NC(=O)CCN(C1(C(=O)NO)CCCC1)S(=O)(=O)c1ccc(Oc2ccc(F)cc2)cc1 [Compound 21A]	Tumour/Blood, mean	0.37
NC(=O)[C@H](CCCCNC(=O)CON=Cc1ccc([18F])cc1)NC(=O)CCOCCOCCOCCOCCOCCOCCOCCOCCOCCOCCOCCNC(=O)CCOCCOCCOCCOCCOCCOCCOCCOCCOCCOCCOCCNC(=O)CCN(C1(C(=O)NO)CCCC1)S(=O)(=O)c1ccc(Oc2ccc(F)cc2)cc1 [Compound 48B]	Tumour/Blood, mean	0.41
NC(=O)[C@H](Cc1ccc(O)c([123I])c1)NC(=O)CCOCCOCCOCCOCCOCCOCCOCCOCCOCCOCCOCCNC(=O)CCOCCOCCOCCOCCOCCOCCOCCOCCOCCOCCOCCNC(=O)CCN(C1(C(=O)NO)CCCC1)S(=O)(=O)c1ccc(Oc2ccc(F)cc2)cc1 [Compound 32A]	Tumour/Blood, mean	0.53

# returns recorded Tumour/Blood, mean (system: Lewis lung carcinoma (LLC) tumour) for NC(=O)[C@H](CCCCNC(=O)CON=Cc1ccc([18F])cc1)NC(=O)CCN(C1(C(=O)NO)CCCC1)S(=O)(=O)c1ccc(Oc2ccc(F)cc2)cc1 [Compound 46B]
0.73

# returns recorded Tumour/Blood, mean (system: Lewis lung carcinoma (LLC) tumour) for NC(=O)[C@H](Cc1ccc(O)c([123I])c1)NC(=O)CCOCCOCCOCCOCCOCCOCCOCCOCCOCCOCCOCCNC(=O)CCN(C1(C(=O)NO)CCCC1)S(=O)(=O)c1ccc(Oc2ccc(F)cc2)cc1 [Compound 44A]
0.43

# returns recorded Tumour/Blood, mean (system: Lewis lung carcinoma (LLC) tumour) for NC(=O)[C@H](Cc1ccc(O)c([123I])c1)NC(=O)COCC(=O)NCCOCCOCCOCCNC(=O)[C@H](CCC(=O)O)NC(=O)[C@H](CCC(=O)O)NC(=O)[C@H](CCC(=O)O)NC(=O)[C@H](CCC(=O)O)NC(=O)[C@H](CCC(=O)O)NC(=O)CCN(C1(C(=O)NO)CCCC1)S(=O)(=O)c1ccc(Oc2ccc(F)cc2)cc1 [Compound 38A]
0.52

---

Tested on: ApoE −/− mice, carotid artery
TEST SUMMARY: Biodistribution in ApoE ligation model of atherosclerosis (ligated and sham)
Format: in vivo
EXPERIMENTAL CONDITIONS: ApoE Ligated, 60 min post injection
The following molecules are listed with their measured Carotid/Lung, mean values.

Below are worked cases with known answers.
MOLECULE	Carotid/Lung, mean
O=C(CCN(C1(C(=O)NO)CCCC1)S(=O)(=O)c1ccc(Oc2ccc(F)cc2)cc1)NCCc1ccc(O)c([123I])c1 [Compound 24A]	1.71
NC(=O)[C@H](CCCCNC(=O)CON=Cc1ccc([18F])cc1)NC(=O)CCN(C1(C(=O)NO)CCCC1)S(=O)(=O)c1ccc(Oc2ccc(F)cc2)cc1 [Compound 46B]	0.53
NC(=O)[C@H](Cc1ccc(O)c([123I])c1)NC(=O)CCOCCOCCOCCOCCOCCOCCOCCOCCOCCOCCOCCNC(=O)CCOCCOCCOCCOCCOCCOCCOCCOCCOCCOCCOCCNC(=O)CCN(C1(C(=O)NO)CCCC1)S(=O)(=O)c1ccc(Oc2ccc(F)cc2)cc1 [Compound 32A]	1.45

Next item in the queue.
Dear colleague, I am looking for the recorded Carotid/Lung, mean of the following molecule: NC(=O)[C@H](CCCCNC(=O)CON=Cc1ccc([18F])cc1)NC(=O)CCOCCOCCOCCOCCOCCOCCOCCOCCOCCOCCOCCNC(=O)CCOCCOCCOCCOCCOCCOCCOCCOCCOCCOCCOCCNC(=O)CCN(C1(C(=O)NO)CCCC1)S(=O)(=O)c1ccc(Oc2ccc(F)cc2)cc1 [Compound 48B]
1.42

---

Tested on: Lewis lung carcinoma (LLC) tumour
TEST SUMMARY: Biodistribution in LLC tumour model in vivo
Design: species or system C57BL/6 mice
EXPERIMENTAL CONDITIONS: 30 min post injection
Procedure: 1×10^6 Lewis lung carcinoma (LLC) cells are injected subcutaneously into right inner thigh of C57BL/6 mice. Tumours were allowed to grow for 15 days prior to biodistribution being carried out. Biodistribution studies were performed in the LLC tumour model. Biodistribution was performed in the LLC tumour model of Example 23 with Compounds 46B and 48B.
ASSAY READOUT: Tumour/Muscle, mean
// keep it numeric: no unit symbol after the value

Below are worked cases with known answers.
COMPOUND	MEASURED NUMBER
NCCCC[C@H](NC(=O)CCN(C1(C(=O)NO)CCCC1)S(=O)(=O)c1ccc(Oc2ccc(F)cc2)cc1)C(=O)N[C@@H](CCCCN)C(=O)N[C@@H](CCCCN)C(=O)N[C@@H](CCCCN)C(=O)N[C@@H](CCCCN)C(=O)NCCOCCOCCOCCNC(=O)COCC(=O)N[C@@H](Cc1ccc(O)c([123I])c1)C(N)=O [Compound 42A]	3.22
NC(=O)[C@H](Cc1ccc(O)c([123I])c1)NC(=O)CCOCCOCCOCCOCCOCCOCCOCCOCCOCCOCCOCCNC(=O)CCN(C1(C(=O)NO)CCCC1)S(=O)(=O)c1ccc(Oc2ccc(F)cc2)cc1 [Compound 44A]	1.57
NC(=O)[C@H](Cc1ccc(O)c([123I])c1)NC(=O)COCC(=O)NCCOCCOCCOCCNC(=O)[C@H](CCC(=O)O)NC(=O)[C@H](CCC(=O)O)NC(=O)[C@H](CCC(=O)O)NC(=O)[C@H](CCC(=O)O)NC(=O)[C@H](CCC(=O)O)NC(=O)CCN(C1(C(=O)NO)CCCC1)S(=O)(=O)c1ccc(Oc2ccc(F)cc2)cc1 [Compound 38A]	2.19
NC(=O)[C@H](Cc1ccc(O)c([123I])c1)NC(=O)[C@H](CCC(=O)O)NC(=O)[C@H](CCC(=O)O)NC(=O)[C@H](CCC(=O)O)NC(=O)[C@H](CCC(=O)O)NC(=O)[C@H](CCC(=O)O)NC(=O)CCN(C1(C(=O)NO)CCCC1)S(=O)(=O)c1ccc(Oc2ccc(F)cc2)cc1 [Compound 21A]	1.72
NC(=O)[C@H](CCCCNC(=O)CON=Cc1ccc([18F])cc1)NC(=O)CCOCCOCCOCCOCCOCCOCCOCCOCCOCCOCCOCCNC(=O)CCOCCOCCOCCOCCOCCOCCOCCOCCOCCOCCOCCNC(=O)CCN(C1(C(=O)NO)CCCC1)S(=O)(=O)c1ccc(Oc2ccc(F)cc2)cc1 [Compound 48B]	2.92
NC(=O)[C@H](Cc1ccc(O)c([123I])c1)NC(=O)CCOCCOCCOCCOCCOCCOCCOCCOCCOCCOCCOCCNC(=O)CCOCCOCCOCCOCCOCCOCCOCCOCCOCCOCCOCCNC(=O)CCN(C1(C(=O)NO)CCCC1)S(=O)(=O)c1ccc(Oc2ccc(F)cc2)cc1 [Compound 32A]	2.80

Dear colleague, I am looking for the recorded Tumour/Muscle, mean of the following compound: O=C(CCN(C1(C(=O)NO)CCCC1)S(=O)(=O)c1ccc(Oc2ccc(F)cc2)cc1)NCCc1ccc(O)c([123I])c1 [Compound 24A]
1.6

Dear colleague, I am looking for the recorded Tumour/Muscle, mean of the following compound: NC(=O)[C@H](CCCCNC(=O)CON=Cc1ccc([18F])cc1)NC(=O)CCN(C1(C(=O)NO)CCCC1)S(=O)(=O)c1ccc(Oc2ccc(F)cc2)cc1 [Compound 46B]
2.06

Ref: patent US20070104644A1
